Entries and their measured melting point follow.

Below, each entry is followed by its recorded melting point result.
# smi, melting point
rows = [
    ("Cc1n[nH]cc1-c1nsc(Oc2ccccc2)n1", "165 to 166 °C"),
    ("c1ccc(Oc2nc(-c3cn[nH]c3)cs2)nc1", "151 to 152 °C"),
    ("Cc1cccc(Oc2nc(-c3c[nH]nc3C)cs2)n1", "138 to 139 °C"),
]

Reported melting point of `Cc1n[nH]cc1-c1csc(Oc2ncccc2F)n1` : 160 °C

Reported melting point of `Cc1n[nH]cc1-c1csc(Oc2cccc(Cl)n2)n1` : 158 to 161 °C

Reported melting point of `CC(=O)c1n[nH]cc1-c1csc(Oc2cccc(C)n2)n1` : 194 to 195 °C

Reported melting point of `Cc1[nH]ncc1-c1csc(Oc2ncccn2)n1` : 177 °C

Reported melting point of `Cc1cccc(Oc2nc(-c3cn[nH]c3)cs2)n1` : 176 to 178 °C

Reported melting point of `FC(F)(F)c1n[nH]cc1-c1nsc(Oc2ccccn2)n1` : 245 to 247 °C

Reported melting point of `Fc1cccc(F)c1Oc1nc(-c2cn[nH]c2)cs1` : 131 to 135 °C
